The reported measurements were obtained from the RNAGym collection of RNA variant scans (doi:10.1126/science.aae0568).

B1: tRNA (parent)
chain: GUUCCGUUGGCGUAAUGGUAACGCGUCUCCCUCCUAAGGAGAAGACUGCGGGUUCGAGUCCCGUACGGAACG

# Variants of: B1
# Measurement protocol: yeast fitness relative to wild type (ratio to wild type); higher = fitter; tRNA-Arg(CCU), competitive growth, 37 C, YPD
This sample holds only a part of the variants without activity.
Reported endpoint: yeast fitness

• G10C A15G G18A U35A G44A = ≤ 0.5
• U3A C4G U8A C49G = ≤ 0.5
• U28C G52A C61U A70C = 0.549
• A20G C34A A57U = ≤ 0.5
• A42U G68A = 0.927

Here are 5 variants. What values of yeast fitness were reported for them?
1. U2G C22U U32C
2. G6C C33G A36C C49A C60G A65G A70U
3. C24U C34A
4. C4U G12C C60G A70C
5. A20U U28A C31U C55G A57C

(A)
["≤ 0.5", "≤ 0.5", 0.783, "≤ 0.5", "≤ 0.5"]

Would you mind giving yeast fitness for every variant in the list below?
1. C4A A57U
2. A21G A36U
3. A40G A43G
4. C31U A40G G48C
5. C22U C30A C49A C55A C62U C66U

(A)
[0.714, 0.583, 0.787, 0.559, 0.667]

Below are 8 variants. Give each one its yeast fitness.
1. A21C U28C A45G
2. U54G C60G G63C
3. C24A C31G C62A
4. U19C C29U A43G
5. G6C G18C A21G A40U U47A C49U C61U A70G
6. G9C A21G C66U A69U
7. G10A U28A A42U
8. U35C C55U C62A

(A)
1: 0.603; 2: ≤ 0.5; 3: 0.594; 4: 0.677; 5: ≤ 0.5; 6: ≤ 0.5; 7: ≤ 0.5; 8: 0.527

Dear colleague, could you send me yeast fitness for each of the items below? Thanks.
1. C46G C49A G67C
2. C5U C11A C24G C27G A36U G38C U53G
3. C4U A14G C29A
4. C31A A42C C46U

(A)
≤ 0.5
≤ 0.5
≤ 0.5
0.592
